Target: T1, hIL27Ra-his (Origene, Catalog #TP307012) (human, UniProt Q6UWB1 33-516, limits assumed)
T1 construct: Bought his-tagged cytokine receptor used as SPR analyte; also called human IL27 receptor subunit alpha; not shown: his tag
T1 sequence: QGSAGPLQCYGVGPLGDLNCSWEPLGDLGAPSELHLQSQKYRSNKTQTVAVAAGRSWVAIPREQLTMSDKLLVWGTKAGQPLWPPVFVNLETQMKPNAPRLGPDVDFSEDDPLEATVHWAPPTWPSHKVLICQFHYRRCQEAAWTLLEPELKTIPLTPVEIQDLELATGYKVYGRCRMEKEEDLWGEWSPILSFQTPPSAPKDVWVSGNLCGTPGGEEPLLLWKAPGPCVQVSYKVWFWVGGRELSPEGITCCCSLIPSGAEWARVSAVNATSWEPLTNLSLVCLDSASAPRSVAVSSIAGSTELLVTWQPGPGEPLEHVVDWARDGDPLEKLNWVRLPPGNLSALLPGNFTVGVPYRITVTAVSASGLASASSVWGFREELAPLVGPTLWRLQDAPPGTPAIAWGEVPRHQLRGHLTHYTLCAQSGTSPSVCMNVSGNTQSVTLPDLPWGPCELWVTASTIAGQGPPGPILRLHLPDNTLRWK
Assay: SPR Biacore T200; mono-Fc VHH on Protein A chip, hIL27Ra-his analyte
Entries and their Kd values follow.
Record the result as a number with its unit.

BINDER	Kd
26-DR603 (SEQ ID NO. 251), anti-hIL27Ra Mono-Fc VHH (Fc fusion, Mono-Fc VHH ligand captured on a Protein A chip; not shown: mono-Fc part) QVQLQESGGGLVQPGGSLRLSCAASGFTFSLSSMSWVRQAPGKGLEWVSAISSGGASTYYTDSVKGRFTISRDNAKNMLYLQLNSLKTEDTAMYYCAKGGSGYGDASRMTSPGSQGTQVTVSS	6.1 nM

Prompt line: If you can, please state the reported Kd value of 20-DR597 (SEQ ID NO. 245), anti-hIL27Ra Mono-Fc VHH (Fc fusion, Mono-Fc VHH ligand captured on a Protein A chip; not shown: mono-Fc part) QVQLQESGGGLVQPGGSLRLSCAASGFTFSSYPMSWVRQAPGKGLEWISTISAGGDTTLYADSVKGRFTSSRDNAKNTLYLQLNSLKTEDAAIYYCAKRIDCNSGYCYRRNYWGQGTQVTVSS .
Response line: 19 nM

Prompt line: Can you look up the measured Kd of 23-DR600 (SEQ ID NO. 248), anti-hIL27Ra Mono-Fc VHH (Fc fusion, Mono-Fc VHH ligand captured on a Protein A chip; not shown: mono-Fc part) QVQLQESGGGSVQSGGSLRLSCAASGFTYSTSNSWMAWFRQAPGKEREGVAAIYTVGGSIFYADSVRGRFTISQDATKNMFYLQMNTLKPEDTAMYYCAAASGRLRGKWFWPYEYNYWGQGTQVTVSS for me?
Response line: 17 nM

Prompt line: Consider the binder shown here: 25-DR602 (SEQ ID NO. 250), anti-hIL27Ra Mono-Fc VHH (Fc fusion, Mono-Fc VHH ligand captured on a Protein A chip; not shown: mono-Fc part) QVQLQESGGGSVQAGGSLRLSCRASGSTYSNYCLGWFRQITGKEREGVAVINWVGGMLYFADSVKGRFTVSQDQAKNTVYLQMNSLKPEDTAMYYCAAESVSSFSCGGWLTRPDRVPYWGQGTQVTVSS What is its recorded Kd?
Response line: 5.2 nM

Prompt line: // lookup Kd for 24-DR601 (SEQ ID NO. 249), anti-hIL27Ra Mono-Fc VHH (Fc fusion, Mono-Fc VHH ligand captured on a Protein A chip; not shown: mono-Fc part) QVQLQESGGGSVQAGGSLRLSCVASGYVSCDYFLPSWYRQAPGKEREFVSIIDGTGSTSYAASVKGRFTASQDKGKNIAYLQMNTLKPEDTAMYYCKASCVRGRAISEYWGQGTQVTVSS
Response line: 4.5 nM
